- SYSTEM UNDER TEST: hKIF18A (1-374) (Homo sapiens (Human))
Could you please mark TRUE for values of IC50 below 20 nM and FALSE for values at or above it?

Please let me know if Cc1cc(-c2cn(-c3ccc(NS(=O)(=O)CCO)cc3N3CCC4(CC3)CC4)nn2)nc(N2CCCC2)n1 [Compound 98] shows IC50 below 20 nM.
TRUE

Please let me know if Cc1cc(-c2cn(-c3ccc(NS(=O)(=O)CCO)cc3N3CCC(C(F)F)CC3)nn2)nc(N2CCC(F)(F)CC2)c1 [Compound 104] shows IC50 below 20 nM.
TRUE

Please let me know if CS(=O)(=O)Nc1ccc(-n2cc(-c3ccc(F)c(N4CCC(F)(F)CC4)n3)nn2)c(N2CCC3(CC2)CC3)c1 [Compound 149] shows IC50 below 20 nM.
FALSE

Please let me know if CC1CCN(c2cc(NS(C)(=O)=O)ccc2-n2cc(-c3cccc(N4CCC(F)(F)CC4)n3)nn2)CC1 [Compound 18] shows IC50 below 20 nM.
TRUE

Please let me know if CCS(=O)(=O)Nc1ccc(-n2cc(-c3ccc(F)c(N4CCC(F)(F)CC4)n3)nn2)c(N2CCC3(CC2)CC3)c1 [Compound 148] shows IC50 below 20 nM.
FALSE

Please let me know if O=S(=O)(CCO)Nc1ccc(-c2cn(-c3cnn(C4CCC(F)(F)CC4)c3)nn2)c(N2CCC3(CC2)CC3)c1 [Compound 166] shows IC50 below 20 nM.
FALSE

Please let me know if Cc1cc(-n2cc(-c3ccc(NS(=O)(=O)CCO)cc3N3CCC4(CC3)CC4)nn2)cc(N2CCC(F)(F)CC2)n1 [Compound 114] shows IC50 below 20 nM.
FALSE

Please let me know if CCS(=O)(=O)Nc1ccc(-n2cc(-c3cnc(C)c(N4CCC(F)(F)CC4)n3)nn2)c(N2CCC3(CC2)CC3)c1 [Compound 145] shows IC50 below 20 nM.
TRUE

Please let me know if O=S(=O)(CCO)Nc1ccc(-n2cc(-c3ccc(C(O)C4CCCC4)o3)nn2)c(N2CCC3(CC2)CC3)c1 (single isomer, unassigned) [Compound 51a] shows IC50 below 20 nM.
TRUE

Please let me know if Cc1cc(-c2cn(-c3ccc(NS(=O)(=O)CCO)cc3N3CCC4(CC3)CC4)nn2)nc(N2CCCCC2)n1 [Compound 101] shows IC50 below 20 nM.
TRUE

Please let me know if Cc1cc(-c2cn(-c3ccc(NS(=O)(=O)CCCO)cc3N3CCC4(CC3)CC4)nn2)nc(N2CCC(F)(F)CC2)n1 [Compound 151] shows IC50 below 20 nM.
FALSE

Please let me know if Cc1cc(-c2cnc(-c3ccc(NS(C)(=O)=O)cc3N3CCC4(CC3)CC4)[nH]2)nc(N2CCC(F)(F)CC2)n1 [Compound 26] shows IC50 below 20 nM.
FALSE

###

- SYSTEM UNDER TEST: KIF18a-microtubule complex (Homo sapiens (Human), UniProt Q8NI77)
- Sequence (Q8NI77 1-374, one chain of several): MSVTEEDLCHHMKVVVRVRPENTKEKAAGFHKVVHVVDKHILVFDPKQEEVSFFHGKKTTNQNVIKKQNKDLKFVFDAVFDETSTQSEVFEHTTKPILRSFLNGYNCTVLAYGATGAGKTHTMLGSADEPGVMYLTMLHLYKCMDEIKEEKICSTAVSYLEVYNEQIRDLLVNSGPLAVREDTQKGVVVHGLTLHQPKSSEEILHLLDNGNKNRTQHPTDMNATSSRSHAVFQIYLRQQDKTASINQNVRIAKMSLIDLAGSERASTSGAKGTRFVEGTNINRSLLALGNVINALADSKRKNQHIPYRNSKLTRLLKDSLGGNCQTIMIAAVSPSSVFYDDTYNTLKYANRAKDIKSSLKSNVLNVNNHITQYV
- TEST PROTOCOL: Binding kinetics to KIF18a-microtubule complex (global progress curve analysis)
- PROTOCOL CONDITIONS: koff/kon; read-out: KI (determined from binding kinetic assay koff/kon)
Exercise: state measured Ki for each of the compounds provided.
Number only, in nM; omit the unit.

State the measured Ki (KIF18a-microtubule complex (Homo sapiens (Human), UniProt Q8NI77)) of O=S(=O)(CCO)Nc1ccc(-n2cc(-c3cccc(N4CCC(F)(F)CC4)n3)nn2)c(N2CCC3(CC2)CC3)c1
0.21

State the measured Ki (KIF18a-microtubule complex (Homo sapiens (Human), UniProt Q8NI77)) of CS(=O)(=O)Nc1ccc(-n2cc(-c3cccc(N4CCC(F)(F)CC4)n3)nn2)c(N2CCC3(CC2)CC3)c1
0.13

State the measured Ki (KIF18a-microtubule complex (Homo sapiens (Human), UniProt Q8NI77)) of Cc1cc(-c2cn(-c3ccc(NS(=O)(=O)CCO)cc3N3CCCCC3)nn2)nc(N2CCC(F)(F)CC2)n1
1.7

State the measured Ki (KIF18a-microtubule complex (Homo sapiens (Human), UniProt Q8NI77)) of CS(=O)(=O)Nc1ccc(-c2nnc(-c3cccc(N4CCOCC4)n3)[nH]2)c(N2CCC3(CC2)CC3)c1
8.9

State the measured Ki (KIF18a-microtubule complex (Homo sapiens (Human), UniProt Q8NI77)) of CS(=O)(=O)Nc1ccc(-c2ncc(-c3cccc(N4CCOCC4)n3)[nH]2)c(N2CCC3(CC2)CC3)c1
14

State the measured Ki (KIF18a-microtubule complex (Homo sapiens (Human), UniProt Q8NI77)) of Cc1cc(-c2cn(-c3ccc(NS(=O)(=O)CCO)cc3N3CCCCC3)nn2)nc(N2CCC(F)(F)CC2)c1
0.82

State the measured Ki (KIF18a-microtubule complex (Homo sapiens (Human), UniProt Q8NI77)) of CS(=O)(=O)Nc1ccc(-c2nnc(-c3cccc(N4CCC(F)(F)CC4)n3)[nH]2)c(N2CCC3(CC2)CC3)c1
1.5

State the measured Ki (KIF18a-microtubule complex (Homo sapiens (Human), UniProt Q8NI77)) of CS(=O)(=O)Nc1ccc(-c2ncc(-c3cccc(N4CCC(F)(F)CC4)n3)[nH]2)c(N2CCC3(CC2)CC3)c1
8.7

State the measured Ki (KIF18a-microtubule complex (Homo sapiens (Human), UniProt Q8NI77)) of O=S(=O)(CCO)Nc1ccc(-n2cc(-c3csc(N4CCC(F)(F)CC4)n3)nn2)c(N2CCC3(CC2)CC3)c1
0.53

State the measured Ki (KIF18a-microtubule complex (Homo sapiens (Human), UniProt Q8NI77)) of Cc1cc(-c2cn(-c3ccc(NS(=O)(=O)CCO)cc3N3CCC4(CC3)CC4)nn2)nc(N2CCC(F)(F)CC2)n1
0.2

State the measured Ki (KIF18a-microtubule complex (Homo sapiens (Human), UniProt Q8NI77)) of Cc1cc(-c2cn(-c3ccc(NS(=O)(=O)CCO)cc3N3CCCCC3)nn2)nc(N2CC(F)(F)C2)c1
15

State the measured Ki (KIF18a-microtubule complex (Homo sapiens (Human), UniProt Q8NI77)) of CS(=O)(=O)Nc1ccc(-n2cc(-c3cccc(N4CCC(F)(F)CC4)n3)nn2)c(N2CCCCC2)c1
0.52

###

- Tested on: HCC15 cells
- TEST PROTOCOL: Cell viability of KIF18a-sensitive cell lines, HCC15 (Cell Titre-Glo, 7 days)
- Assay type: cell-based
- PROTOCOL CONDITIONS: HCC15, 168 h, read-out: HCC15 IC50
QUANTITY MEASURED: IC50 (µM)
Number only, in µM; omit the unit.

State the measured IC50 (HCC15 cells) of Cc1cc(NC(=O)c2ccc(NS(=O)(=O)CCO)cc2N2CCC3(CC2)CC3)nc(N2CCC(F)(F)CC2)n1 [AMG650, reference compound]
0.066

###

- Tested on: NIH:OVCAR-3 cells
- TEST PROTOCOL: Cell viability of KIF18a-sensitive cell lines, NIH:OVCAR-3 (Cell Titre-Glo, 7 days)
- Assay type: cell-based
- PROTOCOL CONDITIONS: Homo sapiens, OVCAR-3, 168 h; NIH:OVCAR3, 7 days; read-out: NIH:OVCAR3 IC50
Could you please mark Y for values of IC50 below 20 nM and N for values at or above it?

Please let me know if Cc1cc(-c2cn(-c3ccc(NS(=O)(=O)CCO)cc3N3CCC4(CC3)CC4)nn2)nc(N2CCC(F)(F)CC2)n1 [Compound 47] shows IC50 below 20 nM.
Y

Please let me know if Cc1cc(-c2cn(-c3ccc(NS(=O)(=O)C4(CO)CC4)cc3N3CCCCC3)nn2)nc(N2CCC(F)(F)CC2)n1 [Compound 91] shows IC50 below 20 nM.
N

Please let me know if O=S(=O)(CCO)Nc1ccc(-n2cc(-c3cccc(OC4CCCC4)n3)nn2)c(N2CCC3(CC2)CC3)c1 [Compound 100] shows IC50 below 20 nM.
N

Please let me know if O=S(=O)(CCO)Nc1ccc(-c2cn(-c3cccc(N4CCC(F)(F)CC4)n3)nn2)c(N2CCC3(CC2)CC3)c1 [Compound 71] shows IC50 below 20 nM.
Y

Please let me know if Cc1cc(-c2cn(-c3ccc(NS(=O)(=O)CCO)cc3N3CCC4(CC3)CC4)nn2)nc(N2CCC(F)(F)CC2)c1 [Compound 72] shows IC50 below 20 nM.
N

Please let me know if CCS(=O)(=O)Nc1cc(N2CCC3(CC2)CC3)c(-n2cc(-c3cccc(S(=O)(=O)NC(C)(C)C)c3)nn2)cc1F [Compound 117] shows IC50 below 20 nM.
Y

Please let me know if Cc1cc(-n2cc(-c3ccc(NS(=O)(=O)CCO)cc3N3CCC4(CC3)CC4)nn2)nc(N2CC3C(C2)C3(F)F)n1 (stereo not shown) [Compound 97] shows IC50 below 20 nM.
N

Please let me know if O=S(=O)(CCO)Nc1ccc(-n2cc(-c3csc(N4CCC(F)(F)CC4)n3)nn2)c(N2CCC3(CC2)CC3)c1 [Compound 69] shows IC50 below 20 nM.
N

Please let me know if Cc1cc(-c2cn(-c3ccc(NS(=O)(=O)CCO)cc3N3CCCCC3)nn2)nc(N2CCC(F)(F)CC2)c1 [Compound 68] shows IC50 below 20 nM.
N

Please let me know if Cc1cc(-c2cn(-c3ccc(NS(=O)(=O)CCO)cc3N3CCC4(CC3)CC4)nn2)nc(N2CC3C(C2)C3(F)F)n1 (stereo not shown) [Compound 73] shows IC50 below 20 nM.
Y

Please let me know if CS(=O)(=O)Nc1ccc(-n2cc(-c3cccc(S(=O)(=O)N4CC(F)(F)C4)c3)nn2)c(N2CCC3(CC2)CC3)c1 [Compound 13] shows IC50 below 20 nM.
Y

Please let me know if CS(=O)(=O)Nc1ccc(-n2cc(-c3cccc(N4CCC(F)(F)CC4)n3)nn2)c(N2CCCCC2)c1 [Compound 15] shows IC50 below 20 nM.
Y

Please let me know if Cc1cc(-c2cn(-c3ccc(NS(=O)(=O)CCO)cc3N3CCC(C)CC3)nn2)nc(N2CCC(F)(F)CC2)n1 [Compound 89] shows IC50 below 20 nM.
N
